Test system: Hepatitis C virus
Test: Antiviral activity against G envelope protein expressing HCV infected in HepG2 cells assessed as inhibition of viral invasion at 3 uM after 24 hrs by SEAP reporter gene assay
Format: functional, Hepacivirus hominis
Conditions: HepG2, 24 h
inhibition at 3 µM by entry:
quantity.name: inhibition at 3 µM (%)

molecule	observed.measurement
O=C(OC[C@H]1O[C@@H](OC(=O)c2cc(O)c(O)c(O)c2)[C@H](OC(=O)c2cc(O)c(O)c(O)c2)[C@@H](OC(=O)c2cc(O)c(O)c(O)c2)[C@@H]1OC(=O)c1cc(O)c(O)c(O)c1)c1cc(O)c(O)c(O)c1	22.8
O=C1OC[C@H]2OC(O)[C@@H]3OC(=O)c4cc(O)c(O)c(O)c4-c4c(cc(O)c(O)c4O)C(=O)O[C@H]3[C@@H]2OC(=O)c2cc(O)c(O)c(O)c2-c2c1cc(O)c(O)c2O (some centres undefined)	14.8
O=C(O[C@@H]1O[C@@H]2COC(=O)c3cc(O)c(O)c(O)c3-c3c(cc(O)c(O)c3O)C(=O)O[C@H]2[C@H](OC(=O)c2cc(O)c(O)c(O)c2)[C@H]1OC(=O)c1cc(O)c(O)c(O)c1)c1cc(O)c(O)c(O)c1	21.2
O=C(OC[C@H]1OC(O)[C@H](OC(=O)c2cc(O)c(O)c(O)c2)[C@@H](OC(=O)c2cc(O)c(O)c(O)c2)[C@@H]1OC(=O)c1cc(O)c(O)c(O)c1)c1cc(O)c(O)c(O)c1 (some centres undefined)	40.7
